- METHOD_SUMMARY: total protein half-life in vivo (active degradation + dilution); higher = more stable protein
- ASSAY_SETUP: wild type E. coli NCM3722; growth: C-lim chemostat; doubling time 12 h
ENDPOINT_NAME: total protein half-life in vivo
The answer should read as a number with its unit following.

Known total protein half-life in vivo results, listed for orientation:
{"BIOPOLYMER_SEQUENCE": "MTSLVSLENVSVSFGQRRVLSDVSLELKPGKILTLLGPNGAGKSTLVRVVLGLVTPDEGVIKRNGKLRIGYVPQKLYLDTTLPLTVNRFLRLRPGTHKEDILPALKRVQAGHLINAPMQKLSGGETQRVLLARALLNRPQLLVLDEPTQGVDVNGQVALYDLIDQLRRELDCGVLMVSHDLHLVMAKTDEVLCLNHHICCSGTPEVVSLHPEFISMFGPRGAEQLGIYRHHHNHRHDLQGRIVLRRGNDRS [P0A9X1]", "ENDPOINT_NAME": "total protein half-life in vivo", "RESULT_VALUE": "6.41 h"}
{"BIOPOLYMER_SEQUENCE": "MNIVITGGTGLIGRHLIPRLLELGHQITVVTRNPQKASSVLGPRVTLWQGLADQSNLNGVDAVINLAGEPIADKRWTHEQKERLCQSRWNITQKLVDLINASDTPPSVLISGSATGYYGDLGEVVVTEEEPPHNEFTHKLCARWEEIACRAQSDKTRVCLLRTGVVLAPDGGILGKMLPPFRLGLGGPIGSGRQYLAWIHIDDMVNGILWLLDNELRGPFNMVSPYPVRNEQFAHALGHALHRPAILRVPATAIRLLMGESSVLVLGGQRALPKRLEEAGFAFRWYDLEEALADVVR", "ENDPOINT_NAME": "total protein half-life in vivo", "RESULT_VALUE": "11.1 h"}
{"BIOPOLYMER_SEQUENCE": "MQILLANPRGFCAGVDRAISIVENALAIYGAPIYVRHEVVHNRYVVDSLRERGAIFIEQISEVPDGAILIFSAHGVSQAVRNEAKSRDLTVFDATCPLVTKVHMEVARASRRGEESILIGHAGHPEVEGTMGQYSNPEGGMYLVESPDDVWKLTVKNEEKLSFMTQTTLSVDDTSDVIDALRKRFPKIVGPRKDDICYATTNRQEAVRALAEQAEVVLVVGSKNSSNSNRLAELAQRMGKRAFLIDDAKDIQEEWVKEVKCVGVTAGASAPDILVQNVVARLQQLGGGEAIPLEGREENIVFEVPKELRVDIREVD", "ENDPOINT_NAME": "total protein half-life in vivo", "RESULT_VALUE": "5.14 h"}
{"BIOPOLYMER_SEQUENCE": "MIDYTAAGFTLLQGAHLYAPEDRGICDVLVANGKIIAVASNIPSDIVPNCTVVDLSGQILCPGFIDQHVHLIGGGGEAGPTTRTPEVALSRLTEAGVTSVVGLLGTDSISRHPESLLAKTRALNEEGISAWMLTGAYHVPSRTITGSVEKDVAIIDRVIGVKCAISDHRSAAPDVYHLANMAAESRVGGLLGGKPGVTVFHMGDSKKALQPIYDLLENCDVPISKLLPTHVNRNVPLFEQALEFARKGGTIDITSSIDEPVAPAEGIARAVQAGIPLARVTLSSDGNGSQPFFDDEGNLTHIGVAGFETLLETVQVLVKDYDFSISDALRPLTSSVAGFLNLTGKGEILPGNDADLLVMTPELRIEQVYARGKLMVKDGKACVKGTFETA", "ENDPOINT_NAME": "total protein half-life in vivo", "RESULT_VALUE": "12.8 h"}

Below: the item to evaluate.
[Q] Please look up its total protein half-life in vivo: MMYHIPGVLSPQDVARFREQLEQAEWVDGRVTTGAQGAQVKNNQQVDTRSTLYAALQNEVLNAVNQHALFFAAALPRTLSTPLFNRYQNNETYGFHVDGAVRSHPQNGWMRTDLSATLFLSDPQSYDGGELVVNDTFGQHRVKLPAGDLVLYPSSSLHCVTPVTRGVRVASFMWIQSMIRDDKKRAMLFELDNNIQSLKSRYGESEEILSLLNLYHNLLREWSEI
[A] 6.39 h
